biological target: T1, human FOLR1 recombinant protein (extracellular domain of human folate receptor alpha) (human, UniProt P15328 25-233); experiment: SPR (Biacore T200), single cycle kinetics, human FOLR1 immobilized on CM5, untagged VHH as analyte, 1:1 fit
T1 construct: Bought recombinant protein (Sino Biological); also called hFOLR1; FR-alpha
T1 sequence (P15328 25-233): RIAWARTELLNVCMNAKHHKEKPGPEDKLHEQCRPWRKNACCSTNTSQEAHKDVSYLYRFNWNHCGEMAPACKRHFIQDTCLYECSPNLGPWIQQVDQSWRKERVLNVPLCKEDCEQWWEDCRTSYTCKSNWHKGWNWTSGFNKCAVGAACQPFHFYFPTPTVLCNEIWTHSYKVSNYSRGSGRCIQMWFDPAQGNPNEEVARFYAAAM
Measurement Name: koff (s⁻¹)
Report as a plain number; the unit s⁻¹ is understood.

binder="untagged M28T-E90Q variant of VHH A2 (VHH, also called A2-M28T-E90Q; A2-M28TE90Q) VHH: DVQLVESGGGLVQAGGSLRLSCAADETKFSNYDLAWYRRAPGKQRELAAIITSGGSTNYPDSVKGRFTISRDNAKNTVYLQMNSLKPEDTAVYYCNALRPWPQFSDYWGQGTQVTVSS" measurement_name=koff observed=0.0013

Now look at this entry.
Prompt: Record request: koff value, item untagged M28A-E90Q variant of VHH A2 (VHH, also called A2-M28A-E90Q) VHH: DVQLVESGGGLVQAGGSLRLSCAADEAKFSNYDLAWYRRAPGKQRELAAIITSGGSTNYPDSVKGRFTISRDNAKNTVYLQMNSLKPEDTAVYYCNALRPWPQFSDYWGQGTQVTVSS
Response: 0.0016

// provenance: patent US20230340111A1
